System: Wolbachia pipientis
Experiment: Anti-Wolbachia Cell-Based Screen
Assay type: functional
Set-up: scale not given: in the data most compounds retested in dose-response had high values
Details: 5 µM
The whole screen tested about 48,000 compounds, of which about 13,000 (27%) showed an effect of 50% or more. The list shows a part of the results.
Percent Effect vs 10%: at or above is fulfilled, below is not fulfilled.

COMPOUND	CLASS_LABEL
Cc1ccc(Oc2ncccc2CNC2Cc3ccccc3C2)cn1	fulfilled
Cc1cc(C)n(CC2CN(CC(=O)Nc3c(C)n[nH]c3C)CCO2)n1 (configuration not stated)	not fulfilled
CN(Cc1ccccc1)C(=O)c1cc2c(c(S(N)(=O)=O)c1)CCC2	not fulfilled
Cc1nc[nH]c1CN(Cc1ccccc1F)C1CC(C)(C)NC(C)(C)C1.O=C(O)CC(O)(CC(=O)O)C(=O)O	fulfilled
COc1ncccc1CNC(=O)N(Cc1ccccc1F)C1CC1	not fulfilled
Cc1cc(C)n(CC2CN(CC(=O)NC3CCCCC3)CCO2)n1 (configuration not stated)	fulfilled
CC1CCCN(c2nccn3c(=O)[nH]nc23)C1 (configuration not stated)	fulfilled

###

Measured Percent Effect values are reported for all entries that follow.
Test system: Wolbachia pipientis
Assay: Anti-Wolbachia Cell-Based Screen
Assay type: functional
Set-up: scale not given: in the data most compounds retested in dose-response had high values
Conditions: 5 µM
About 13,000 (27%) of roughly 48,000 compounds showed an effect of 50% or more. This is one part of the list.
OBSERVATION_TYPE: Percent Effect (%)

COMPOUND	VAL
CCCN1CCc2nc(SCc3c(C)cc(C)cc3C)[nH]c(=O)c2C1	4.96
Cn1ncc(C2CC(=O)NCc3nc4ccccn4c32)c1C1CC1 (stereo not given)	1.817
N#Cc1cn(CCN2CCc3ccccc3C2)c(=O)[nH]c1=O	-7.012
CNc1nc(C(=O)N2CCCn3nc(C(=O)N4CCCC4)cc3C2)cs1	132.4
Cc1ccc(O)c(CN2CCn3nc(C(=O)N4CCCC4)cc3C2)n1	-10.87

###

Measured Percent Effect values are reported for all entries that follow.
Tested on: Wolbachia pipientis
Test: Anti-Wolbachia Cell-Based Screen
Type: functional
Parameters: scale not given: in the data most compounds retested in dose-response had high values
Details: 5 µM
Among all 48,000 compounds or so, about 13,000 (27%) showed an effect of 50% or more. The list shows a part of the results.
OBSERVATION_TYPE: Percent Effect (%)

MOLECULE	OBSERVATION_TYPE	VAL
O=C(O)C(F)(F)F.O=C(c1ccc(F)cc1)N1CCC2(CC1)CC(N1CCOCC1)C2	Percent Effect	98.46
Cc1nn(C)c(Cl)c1C1CCCN1CC(=O)NCc1ccco1 (stereo not given)	Percent Effect	93.09
CCc1nc(C2CCCN(C(=O)c3c(C)noc3C)C2)no1 (stereo not given)	Percent Effect	106.3
CCOc1ccc(NC(C)C(=O)NCCc2cccs2)cc1CO (stereo not given)	Percent Effect	-30.37
CC(=O)N1CCOC2(CCN(C(=O)c3cnoc3C)CC2)C1	Percent Effect	6.241
O=S(=O)(N1CCCCCC1)N1CCc2sccc2C1	Percent Effect	4.086
COCCN1C(=O)[C@]2(CC[C@@H]3CN(C(=O)NC4CCCC4)C[C@@H]32)N=C1C	Percent Effect	-7.65
CC(=O)N1CCC2(CC1)CC(N1CCOCC1)c1ccc(C)cc12.O=C(O)C(F)(F)F (stereo not given)	Percent Effect	0.6002
CC(C)(C)C(=O)N1CC(=O)N(Cc2ccco2)CC(O)C1 (stereo not given)	Percent Effect	96.28
CN(Cc1nc2ccccc2[nH]1)C(=O)CN(C)c1ccccc1	Percent Effect	-21.88
O=C(O)C(F)(F)F.O=C1CC(c2ccncc2)C2(CCN(C(=O)c3cccc(F)c3)CC2)N1 (stereo not given)	Percent Effect	8.556
O=C(O)C(F)(F)F.O=C([C@H]1CC[C@@H]2[C@@H](CCN2C2CCCCC2)O1)N1CCOCC1	Percent Effect	120.9
Cn1cccc1C(=O)N1CCC2(CC1)CC(N1CCOCC1)C2.O=C(O)C(F)(F)F	Percent Effect	103.3
CN1CCCCC12CCN(C(=O)c1cccn1C)CC2.O=C(O)C(F)(F)F	Percent Effect	-9.83
O=C(O)C(F)(F)F.O=C(c1ccccc1)N1C[C@@H]2CCCO[C@@H]2[C@H](N2CCOCC2)C1	Percent Effect	-6.046
O=C1CN(C(=O)C2CCCCC2)CC(O)CN1Cc1ccco1 (stereo not given)	Percent Effect	88.46
CC1=N[C@@]2(CC[C@@H]3CN(CC(=O)N(C)C)C[C@@H]32)C(=O)N1CC(C)C.O=C(O)C(F)(F)F	Percent Effect	6.41
O=C(O)C(F)(F)F.O=C([C@H]1CC[C@@H]2[C@@H](CCN2C2CCCC2)O1)N1CCOCC1	Percent Effect	125.5
O=C(O)C(F)(F)F.O=C([C@H]1COC[C@H]2CN(C3CCCCC3)C[C@H]21)N1CCOCC1	Percent Effect	-10.34
O=C(O)C(F)(F)F.O=C([C@H]1CC[C@@H]2[C@@H](CCN2Cc2ccsc2)O1)N1CCOCC1	Percent Effect	-4.642
